TEST_TARGET: hERG (KCNH2) (Homo sapiens, UniProt Q12809)
Sequence (Q12809 whole entry): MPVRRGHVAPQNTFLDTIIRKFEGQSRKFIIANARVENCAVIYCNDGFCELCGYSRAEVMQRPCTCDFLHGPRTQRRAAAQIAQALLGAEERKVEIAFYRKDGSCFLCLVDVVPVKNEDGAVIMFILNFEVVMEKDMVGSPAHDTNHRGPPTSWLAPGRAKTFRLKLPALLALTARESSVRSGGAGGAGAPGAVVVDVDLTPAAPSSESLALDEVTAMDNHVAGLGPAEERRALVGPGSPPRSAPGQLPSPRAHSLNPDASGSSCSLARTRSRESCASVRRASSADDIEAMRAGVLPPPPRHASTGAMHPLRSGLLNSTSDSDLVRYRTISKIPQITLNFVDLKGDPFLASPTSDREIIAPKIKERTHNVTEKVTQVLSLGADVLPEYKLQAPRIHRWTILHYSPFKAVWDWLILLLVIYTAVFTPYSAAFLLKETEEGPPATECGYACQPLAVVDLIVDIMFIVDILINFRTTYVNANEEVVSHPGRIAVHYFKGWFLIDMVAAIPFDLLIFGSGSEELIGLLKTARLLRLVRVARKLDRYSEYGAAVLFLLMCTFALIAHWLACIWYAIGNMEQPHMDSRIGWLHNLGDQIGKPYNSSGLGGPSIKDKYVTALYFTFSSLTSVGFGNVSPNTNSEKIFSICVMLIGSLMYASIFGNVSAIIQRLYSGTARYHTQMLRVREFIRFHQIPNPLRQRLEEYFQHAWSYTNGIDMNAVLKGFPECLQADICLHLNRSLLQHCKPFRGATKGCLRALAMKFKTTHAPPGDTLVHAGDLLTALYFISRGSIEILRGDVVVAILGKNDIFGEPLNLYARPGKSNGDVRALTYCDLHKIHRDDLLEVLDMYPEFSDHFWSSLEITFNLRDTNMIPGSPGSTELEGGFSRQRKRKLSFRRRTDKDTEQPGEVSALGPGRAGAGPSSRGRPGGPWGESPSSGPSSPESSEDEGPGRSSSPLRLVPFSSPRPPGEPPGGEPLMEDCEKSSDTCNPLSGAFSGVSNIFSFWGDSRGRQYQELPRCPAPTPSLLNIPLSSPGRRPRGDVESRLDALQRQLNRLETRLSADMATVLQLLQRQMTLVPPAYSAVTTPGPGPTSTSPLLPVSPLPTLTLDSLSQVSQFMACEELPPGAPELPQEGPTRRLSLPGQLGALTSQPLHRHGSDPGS
ASSAY_NOTES: Displacement of tracer red from human ERG at 10 uM by fluorescence polarization assay relative to control
ASSAY_CONDITIONS: probe tracer red
Class (required): determined from inhibition at 10 µM; valid ranges are lowest: < 30%; middle: ≥ 30% and < 50%; highest: ≥ 50%

Please review the entries below; each comes with its answer.
# ITEM_SMILES, TEST_TARGET, CLASS_LABEL
rows = [
    ("COc1ccc(N(C(=S)NCCCn2cncc2C)C2CCC2)cc1OC", "hERG (KCNH2) (Homo sapiens, UniProt Q12809)", "lowest"),
    ("COc1ccc(N(C(=S)NCCCn2cncc2C)C2CCCC2)cc1OC", "hERG (KCNH2) (Homo sapiens, UniProt Q12809)", "middle"),
    ("COc1ccc(N(Cc2cccnc2)C(=S)NCCCn2cncc2C)cc1OC", "hERG (KCNH2) (Homo sapiens, UniProt Q12809)", "middle"),
]

Lookup: Could you tell me which band COc1ccc(N(C(=S)NCCCn2cncc2C)C(C)C)cc1OC belongs to?
Found: middle

Lookup: Category lookup for the compound COc1ccc(N(C(=S)NCCCn2cncc2C)C2CCCCC2)cc1OC
Found: highest

Lookup: Band of COc1ccc(N(Cc2cccnc2)C(=O)NCCCn2cncc2C)cc1OC ?
Found: middle

Lookup: Category of COc1ccc(N(Cc2cccc(F)c2)C(=S)NCCCn2cncc2C)cc1OC :
Found: highest

Lookup: Hi there! Could you help me figure out the category for COc1ccc(N(CC2CCCC2)C(=S)NCCCn2cncc2C)cc1OC please?
Found: highest

Lookup: Which class is correct for the following compound? COc1ccc(N(CC(C)C)C(=O)NCCCn2cncc2C)cc1OC
Found: lowest

Lookup: Categorize the following entry: COc1ccc(N(CCCCc2ccnc(N)c2)C(=O)NCCCn2cncc2C)cc1OC
Found: middle

This collection of values is drawn from ChEMBL document CHEMBL4373720.
